I'd be grateful if you could share measured percentage of input antibody bound for these entries.
subject_of_test: T1, human glycophorin A on human red blood cells or red blood cell membranes (human, UniProt P02724 20-150)
T1 construct: whole, on cells; also called hRBC; human RBC membranes
T1 sequence (looked up): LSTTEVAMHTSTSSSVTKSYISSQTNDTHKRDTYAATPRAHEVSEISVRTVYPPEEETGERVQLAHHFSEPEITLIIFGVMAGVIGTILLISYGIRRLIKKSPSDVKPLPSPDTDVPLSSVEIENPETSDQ
test_method_notes: Fab on intact human RBC, unbound Fab by ELISA; 0 min after 200-fold dilution
One number for each entry, in %.

Recorded percentage of input antibody bound, per entry:
| binder | percentage of input antibody bound (%) |
| --- | --- |
| TPP-7796, affinity matured 6C12 Fab (Fab, V domains shown, Tested as Fab) VH: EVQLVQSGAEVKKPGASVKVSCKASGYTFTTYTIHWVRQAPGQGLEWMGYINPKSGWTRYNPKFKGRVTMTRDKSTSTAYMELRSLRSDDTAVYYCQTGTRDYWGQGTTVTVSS VL: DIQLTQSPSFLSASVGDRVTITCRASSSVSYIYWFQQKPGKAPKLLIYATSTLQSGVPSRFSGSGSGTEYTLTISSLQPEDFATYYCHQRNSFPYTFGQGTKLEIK | 82 |
| TPP-7792, affinity matured 6C12 Fab (Fab, V domains shown, Tested as Fab with a 6xHIS tag) VH: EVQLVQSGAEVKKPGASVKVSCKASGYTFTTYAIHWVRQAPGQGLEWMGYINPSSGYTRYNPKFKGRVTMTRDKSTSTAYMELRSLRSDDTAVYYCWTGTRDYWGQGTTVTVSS VL: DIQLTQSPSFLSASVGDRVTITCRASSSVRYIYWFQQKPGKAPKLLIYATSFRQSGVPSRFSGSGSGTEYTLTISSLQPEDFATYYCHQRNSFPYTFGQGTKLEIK | 97 |
| TPP-7782, affinity matured 6C12 Fab (Fab, V domains shown, Tested as Fab) VH: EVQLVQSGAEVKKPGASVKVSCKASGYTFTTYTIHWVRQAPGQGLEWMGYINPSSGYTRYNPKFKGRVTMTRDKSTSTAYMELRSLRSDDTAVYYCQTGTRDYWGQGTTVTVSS VL: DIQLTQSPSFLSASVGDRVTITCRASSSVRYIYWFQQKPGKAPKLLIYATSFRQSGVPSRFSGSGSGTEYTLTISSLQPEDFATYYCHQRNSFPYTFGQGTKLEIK | 95 |

Give measured percentage of input antibody bound for every item shown.
1. TPP-7794, affinity matured 6C12 Fab (Fab, V domains shown, Tested as Fab) VH: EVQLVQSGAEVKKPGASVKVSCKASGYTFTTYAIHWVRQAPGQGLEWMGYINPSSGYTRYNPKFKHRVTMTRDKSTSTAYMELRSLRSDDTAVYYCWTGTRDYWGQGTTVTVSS VL: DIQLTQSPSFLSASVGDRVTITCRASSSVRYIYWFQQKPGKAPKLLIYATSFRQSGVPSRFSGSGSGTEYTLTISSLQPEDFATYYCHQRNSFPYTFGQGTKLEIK
2. TPP-7778, affinity matured 6C12 Fab (Fab, V domains shown, Tested as Fab) VH: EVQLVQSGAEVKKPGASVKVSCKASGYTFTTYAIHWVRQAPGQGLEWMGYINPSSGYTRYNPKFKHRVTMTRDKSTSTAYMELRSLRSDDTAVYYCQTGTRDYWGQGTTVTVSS VL: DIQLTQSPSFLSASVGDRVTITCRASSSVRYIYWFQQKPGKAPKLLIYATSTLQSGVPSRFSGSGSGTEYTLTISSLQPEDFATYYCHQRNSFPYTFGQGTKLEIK
3. TPP-7781, affinity matured 6C12 Fab (Fab, V domains shown, Tested as Fab) VH: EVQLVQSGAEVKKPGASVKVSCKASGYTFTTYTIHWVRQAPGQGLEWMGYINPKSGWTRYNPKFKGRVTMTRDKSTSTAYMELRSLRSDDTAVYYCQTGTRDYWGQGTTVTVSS VL: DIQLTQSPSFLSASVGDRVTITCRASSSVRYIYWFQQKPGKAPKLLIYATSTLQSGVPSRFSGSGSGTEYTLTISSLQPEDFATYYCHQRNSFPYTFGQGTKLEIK

1. 92
2. 84
3. 93

Fill in: percentage of input antibody bound of TPP-7783, affinity matured 6C12 Fab (Fab, V domains shown, Tested as Fab) VH: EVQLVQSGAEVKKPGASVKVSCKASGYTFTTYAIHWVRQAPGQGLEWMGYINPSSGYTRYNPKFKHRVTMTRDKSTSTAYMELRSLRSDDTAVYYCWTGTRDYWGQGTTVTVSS VL: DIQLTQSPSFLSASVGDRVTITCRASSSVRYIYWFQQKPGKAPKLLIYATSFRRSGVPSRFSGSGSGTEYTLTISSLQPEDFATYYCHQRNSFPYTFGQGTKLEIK is ___
87
